RUN_DESCRIPTION: Metabolic stability in liver microsomes
Format: in vitro ADME, mouse
CONDITION_SET: mouse, liver microsomes; read-out: Scale-up CLint
Method: Following this, the metabolic stability of 9 was determined against mouse, rat, and human liver microsomes. […] Within this assay the stability of the intact parent compound is monitored with respect to time, during incubation at 37 °C in the presence and absence of the co-factor NADPH – required for cytochrome p450 activity. Metabolic Stability in Rat, Mouse and Human Liver Microsomes: […]
REPORTED_METRIC: CLint scaled at 1 µM

The recorded CLint scaled at 1 µM for entry O=C(Nc1ccc(C(F)(F)F)cc1)N[C@H](Cc1ccccc1)C(=O)O equals < 1.86 L/h/kg

* * *

RUN_DESCRIPTION: Bi-directional permeability in Caco-2 cell line
Format: in vitro ADME
CONDITION_SET: human, Caco-2, pH 7.4, after 2 hours; read-out: Recovery (%) AP-BL
REPORTED_METRIC: recovery at 2 h, 5 µM
The answer should read as a number with its unit following.

Solved entries (count: 2):
O=C(Nc1ccc(C(F)(F)F)cc1)N[C@H](Cc1ccccc1)C(=O)O = 111%
COCCc1ccc(OCC(O)CNC(C)C)cc1 (stereo not drawn) = 108%

Briefly, recovery at 2 h, 5 µM measured for C[C@H]1O[C@@H](O[C@H]2[C@@H](O)C[C@H](O[C@H]3[C@@H](O)C[C@H](O[C@H]4CC[C@@]5(C)[C@H](CC[C@@H]6[C@@H]5C[C@@H](O)[C@]5(C)[C@@H](C7=CC(=O)OC7)CC[C@]65O)C4)O[C@@H]3C)O[C@@H]2C)C[C@H](O)[C@@H]1O : 95.9%

* * *

Overview of recorded Papp A→B at 2 h, 5 µM for various molecules
RUN_DESCRIPTION: Bi-directional permeability in Caco-2 cell line
Assay type: in vitro ADME
CONDITION_SET: human, Caco-2, pH 7.4; 5 µM, 2 hours, apical to basolateral
Expressed in ×10⁻⁶ cm/s, but write only the number.

COCCc1ccc(OCC(O)CNC(C)C)cc1 (stereo not drawn) = 28.4
O=C(Nc1ccc(C(F)(F)F)cc1)N[C@H](Cc1ccccc1)C(=O)O = 0.17

Documented Papp A→B at 2 h, 5 µM of C[C@H]1O[C@@H](O[C@H]2[C@@H](O)C[C@H](O[C@H]3[C@@H](O)C[C@H](O[C@H]4CC[C@@]5(C)[C@H](CC[C@@H]6[C@@H]5C[C@@H](O)[C@]5(C)[C@@H](C7=CC(=O)OC7)CC[C@]65O)C4)O[C@@H]3C)O[C@@H]2C)C[C@H](O)[C@@H]1O : 0.42

* * *

RUN_DESCRIPTION: Plasma protein binding, equilibrium dialysis
Format: in vitro ADME, human
CONDITION_SET: human, human plasma, pH 7.4, human plasma, after 6 hours
REPORTED_METRIC: recovery at 6 h, 5 µM (%)
Field: numeric (%). Do not append units.

GET /value?item= O=C(Nc1ccc(C(F)(F)F)cc1)N[C@H](Cc1ccccc1)C(=O)O [SSA 9] &field=recovery at 6 h, 5 µM returns 98.3

* * *

RUN_DESCRIPTION: Bi-directional permeability in Caco-2 cell line
Format: in vitro ADME
CONDITION_SET: human, Caco-2, pH 7.4
REPORTED_METRIC: efflux ratio at 2 h, 5 µM
Lab note: record just the number, no unit beside it.

// field: efflux ratio at 2 h, 5 µM; key: C[C@H]1O[C@@H](O[C@H]2[C@@H](O)C[C@H](O[C@H]3[C@@H](O)C[C@H](O[C@H]4CC[C@@]5(C)[C@H](CC[C@@H]6[C@@H]5C[C@@H](O)[C@]5(C)[C@@H](C7=CC(=O)OC7)CC[C@]65O)C4)O[C@@H]3C)O[C@@H]2C)C[C@H](O)[C@@H]1O [Digoxin] ; value = 45.6

* * *

RUN_DESCRIPTION: Kinetic solubility in PBS pH 7.4
Assay type: physicochemical
CONDITION_SET: phosphate buffered saline, 25 °C, pH 7.4, aqueous buffer, kinetic from dmso stock, upper limit 300 µM
REPORTED_METRIC: solubility at 2 h (µM)
Use µM as the unit, but write only the number.

Sample O=C(Nc1ccc(C(F)(F)F)cc1)N[C@H](Cc1ccccc1)C(=O)O [SSA 9] ; solubility at 2 h observed: 271

* * *

RUN_DESCRIPTION: Metabolic stability in liver microsomes
Type: in vitro ADME, rat
CONDITION_SET: liver microsomes; rat microsomes
REPORTED_METRIC: microsomal CLint at 1 µM

// recorded microsomal CLint at 1 µM for O=C(Nc1ccc(C(F)(F)F)cc1)N[C@H](Cc1ccccc1)C(=O)O [SSA 9] : < 7.5 µL/min/mg

* * *

Each entry below carries its reported efflux ratio at 2 h, 5 µM.
RUN_DESCRIPTION: Bi-directional permeability in Caco-2 cell line
Format: in vitro ADME
CONDITION_SET: human, Caco-2, pH 7.4, Caco-2

COCCc1ccc(OCC(O)CNC(C)C)cc1 (centres unmarked) [Metoprolol] = 0.93

Let's switch to this molecule now.
// field: efflux ratio at 2 h, 5 µM; key: O=C(Nc1ccc(C(F)(F)F)cc1)N[C@H](Cc1ccccc1)C(=O)O [SSA 9] ; value = 96.9

* * *

System: A2780 ovarian cancer cells
RUN_DESCRIPTION: GI50 determination, SRB assay
Assay type: cell-based, human
CONDITION_SET: Homo sapiens, A2780, 96 h, 96 hours; read-out: Mean GI50 (μM) A2780 SRB Assays
Quick list: GI50 per entry.
A number alone suffices; assume µM.

The cases that follow already have their GI50 on record.
O=C(O)CNC(=O)Nc1ccc(C(F)(F)F)cc1 = 117
CC(C)CC(NC(=O)Nc1ccc(C(F)(F)F)cc1)C(=O)O (stereo not shown) = 171
O=C(Nc1ccc(C(F)(F)F)cc1)N[C@H](Cc1ccccc1)C(=O)O = 105

Now look at this one.
Note to self: GI50 recorded for O=C(Nc1ccc(C(F)(F)F)cc1)N[C@@H](Cc1ccccc1)C(=O)O was 178

* * *

System: S. aureus NCTC 13616
RUN_DESCRIPTION: MIC assay
Assay type: cell-based, Staphylococcus aureus
CONDITION_SET: Staphylococcus aureus, NCTC13616; lowest concentration with no visible growth; read-out: MIC (mM) S. aureus 13616
REPORTED_METRIC: MIC (mM)
Value expressed in mM; do not type the unit.

O=C(Nc1ccc(C(F)(F)F)cc1)N[C@@H](Cc1ccccc1)C(=O)O = 0.087

The compound listed as CC(C)CC(NC(=O)Nc1ccc(C(F)(F)F)cc1)C(=O)O (stereo not shown) shows MIC equal to 0.087

The compound identified as O=C(Nc1ccc(C(F)(F)F)cc1)N[C@H](Cc1ccccc1)C(=O)O registered its MIC at 0.087

* * *

RUN_DESCRIPTION: Metabolic stability in liver microsomes
Format: in vitro ADME, mouse
CONDITION_SET: mouse, liver microsomes, mouse, 1 µM, 0.5 mg protein/mL; read-out: In vitro t1/2
REPORTED_METRIC: half-life at 1 µM

Given item O=C(Nc1ccc(C(F)(F)F)cc1)N[C@H](Cc1ccccc1)C(=O)O , the value recorded as its half-life at 1 µM is > 3.08 h

* * *

RUN_DESCRIPTION: Metabolic stability in liver microsomes
Assay type: in vitro ADME, human
CONDITION_SET: human microsomes
REPORTED_METRIC: microsomal CLint at 1 µM

So for O=C(Nc1ccc(C(F)(F)F)cc1)N[C@H](Cc1ccccc1)C(=O)O , the logged microsomal CLint at 1 µM turned out to be < 7.5 µL/min/mg

* * *

RUN_DESCRIPTION: Plasma protein binding, equilibrium dialysis
Format: in vitro ADME, human
CONDITION_SET: human, plasma, pH 7.4, human plasma, 5 µM, 6 hours, 37 °C; read-out: % Bound (converted)
REPORTED_METRIC: fraction unbound at 6 h, 5 µM
Would you mind answering with just the numeric figure?

GET /value?item= O=C(Nc1ccc(C(F)(F)F)cc1)N[C@H](Cc1ccccc1)C(=O)O [SSA 9] &field=fraction unbound at 6 h, 5 µM returns 0.003

* * *

Item-by-item account of Papp B→A at 2 h, 5 µM
RUN_DESCRIPTION: Bi-directional permeability in Caco-2 cell line
Format: in vitro ADME
CONDITION_SET: human, Caco-2, pH 7.4, 5 µM, 2 hours, basolateral to apical
Give the number; ×10⁻⁶ cm/s is assumed, so skip it.

C[C@H]1O[C@@H](O[C@H]2[C@@H](O)C[C@H](O[C@H]3[C@@H](O)C[C@H](O[C@H]4CC[C@@]5(C)[C@H](CC[C@@H]6[C@@H]5C[C@@H](O)[C@]5(C)[C@@H](C7=CC(=O)OC7)CC[C@]65O)C4)O[C@@H]3C)O[C@@H]2C)C[C@H](O)[C@@H]1O = 18.7
COCCc1ccc(OCC(O)CNC(C)C)cc1 (stereo not drawn) = 26.4

Would you kindly look at the next entry?
Looking up O=C(Nc1ccc(C(F)(F)F)cc1)N[C@H](Cc1ccccc1)C(=O)O , I found its Papp B→A at 2 h, 5 µM recorded as 16.8
